Molecular target: T1, human CD3e/g antigen (ACRO, catalog number CDG-H52W5) (human, UniProt P07766 23-126; P09693 23-116)
T1 construct: Bought reagent used as the Biacore analyte; also called hCD3e/g
Experiment: SPR (Biacore 8K), antibody captured via anti-human Fc
Protocol: The equilibrium dissociation constant of binding of CD3 antibodies to human CD3e/g antigen (purchased from ACRO, catalog number CDG-H52W5) was determined by kinetic binding method using Biacore 8K (GE) system. […]
So basically: is Kd under 10 nM? Then 1. Not under? Then 0.

Binder: CAb001 (antibody, V domains shown, Chimeric: mouse variable regions linked to human light and heavy constant regions; constant regions not specified) VH: QVQLQQSGPELVKPGASVKISCKASGYSFTNYYMHWVKQRPGQGLEWIGWTYPGNNNIKYNEKFKGKATLTADTSSSTAYMQLSSLTSEDSAVYYCARDGYGYYFFDYWGQGIILTVSS VL: DIVMSQSPSSLAVSAGEKVTMSCKSSQSLLNNRTRKNYLAWYQQKPGQSPKLLIYWASTRESGVPDRFTGSGSGTDFTLTISSVQAEDLAIYYCKQSYTLRTFGGGTKLAIK
Label: 0

Binder: hAb008-20 (antibody, V domains shown, Humanized; constant regions not specified) VH: QVQLVQSGAEVKKPGASVKVSCKASGYTFTDYTVNWVRQAPGQRLEWIGYINPFNSYTKYNQKFKDRVTITADTSASTAYMELSSLRSEDTAVYYCANSVSTYWGQGTTVTVSS VL: DVVMTQSPLSLPVTLGQPASISCKSSQSLLDSDGKTYLNWFQQRPGQSPRRLIYLVSKLNSGVPDRFSGSGSGTDFTLKISRVEAEDVGVYYCWQGTHFPRTFGGGTKLEIK
Label: 0

Binder: hAb008-23 (antibody, V domains shown, Humanized; constant regions not specified) VH: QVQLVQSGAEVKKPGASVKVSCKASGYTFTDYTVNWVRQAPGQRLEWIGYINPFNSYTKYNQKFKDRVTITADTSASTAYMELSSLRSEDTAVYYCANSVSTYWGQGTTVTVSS VL: DVVMTQSPLSLPVTLGQPASISCKSSQSLLDSDGKTYLNWLLQRPGQSPRRLIQLVSKLNSGVPDRFSGSGSGTDFTLKISRVEAEDVGVFYCWQGTHFPRTFGGGTKLEIK
Label: 0

Binder: hAb008-17 (antibody, V domains shown, Humanized; constant regions not specified) VH: QVQLVQSGAEVKKPGASVKVSCKASGYTFTDYTVNWVRQAPGQRLEWMGYINPFNSYTKYNQKFKDRVTITRDTSASTAYMELSSLRSEDTAVYYCARSVSTYWGQGTTVTVSS VL: DVVMTQSPLSLPVTLGQPASISCKSSQSLLDSDGKTYLNWFQQRPGQSPRRLIQLVSKLNSGVPDRFSGSGSGTDFTLKISRVEAEDVGVFYCWQGTHFPRTFGGGTKLEIK
Label: 1

Binder: hAb008-25 (antibody, V domains shown, Humanized; constant regions not specified) VH: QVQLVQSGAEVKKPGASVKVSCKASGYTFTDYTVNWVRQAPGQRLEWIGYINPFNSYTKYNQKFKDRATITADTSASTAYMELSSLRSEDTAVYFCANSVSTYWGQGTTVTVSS VL: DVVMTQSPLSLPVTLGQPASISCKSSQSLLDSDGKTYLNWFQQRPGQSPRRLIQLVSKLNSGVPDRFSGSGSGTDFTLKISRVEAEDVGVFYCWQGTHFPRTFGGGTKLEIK
Label: 0

Binder: hAb001-31 (antibody, V domains shown, Humanized; constant regions not specified) VH: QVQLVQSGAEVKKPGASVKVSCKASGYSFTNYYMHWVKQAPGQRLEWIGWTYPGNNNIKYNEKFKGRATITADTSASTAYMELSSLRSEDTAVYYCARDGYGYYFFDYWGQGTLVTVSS VL: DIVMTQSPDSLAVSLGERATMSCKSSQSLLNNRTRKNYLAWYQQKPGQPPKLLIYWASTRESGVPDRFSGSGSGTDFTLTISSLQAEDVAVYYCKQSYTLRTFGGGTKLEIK
Label: 0

In the record for hAb001-28 (antibody, V domains shown, Humanized; constant regions not specified) VH: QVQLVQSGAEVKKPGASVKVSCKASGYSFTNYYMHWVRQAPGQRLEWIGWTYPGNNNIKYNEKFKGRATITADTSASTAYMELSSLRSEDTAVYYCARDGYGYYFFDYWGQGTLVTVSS VL: DIVMTQSPDSLAVSLGERATMSCKSSQSLLNNRTRKNYLAWYQQKPGQPPKLLIYWASTRESGVPDRFTGSGSGTDFTLTISSLQAEDVAVYYCKQSYTLRTFGGGTKLEIK , is Kd less than 10 nM?
0

In the record for hAb008-24 (antibody, V domains shown, Humanized; constant regions not specified) VH: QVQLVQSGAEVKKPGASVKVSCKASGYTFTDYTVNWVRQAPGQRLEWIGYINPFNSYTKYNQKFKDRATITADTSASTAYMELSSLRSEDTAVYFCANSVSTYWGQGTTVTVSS VL: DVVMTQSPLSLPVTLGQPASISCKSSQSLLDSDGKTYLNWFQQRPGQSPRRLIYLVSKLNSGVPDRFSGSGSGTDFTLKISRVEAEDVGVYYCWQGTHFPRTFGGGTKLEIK , is Kd less than 10 nM?
0

In the record for hAb007-32 (antibody, V domains shown, Humanized; constant regions not specified) VH: QVQLVQSGAEVKKPGASVKVSCKASGSTFTDNYIHWVKQAPGQRLEWIGWIYPGSVNIKYNEKFKDRATITADTSATTAYMELSSLRSEDTAVYYCARDISRYYFDYWGQGTTVTVSS VL: DIVMTQSPDSLAVSLGERATMNCKSSQSLLNSRTRKNYLAWYQQKPGQPPKLLIYWASTRESGVPDRFTGSGSGTDFTLTISSLQAEDVAVYYCKQSFILRTFGGGTKLEIK , is Kd less than 10 nM?
1
